target: Cytochrome P450 3A4 (Homo sapiens) (UniProt P08684); experiment: Cytochrome panel assay with activity outcomes; conditions: recombinant CYP, pro-luciferin dealkylation, luminescence, p450-cyp3a4; series mostly up to 57.1 µM
Sequence (P08684 whole entry, looked up): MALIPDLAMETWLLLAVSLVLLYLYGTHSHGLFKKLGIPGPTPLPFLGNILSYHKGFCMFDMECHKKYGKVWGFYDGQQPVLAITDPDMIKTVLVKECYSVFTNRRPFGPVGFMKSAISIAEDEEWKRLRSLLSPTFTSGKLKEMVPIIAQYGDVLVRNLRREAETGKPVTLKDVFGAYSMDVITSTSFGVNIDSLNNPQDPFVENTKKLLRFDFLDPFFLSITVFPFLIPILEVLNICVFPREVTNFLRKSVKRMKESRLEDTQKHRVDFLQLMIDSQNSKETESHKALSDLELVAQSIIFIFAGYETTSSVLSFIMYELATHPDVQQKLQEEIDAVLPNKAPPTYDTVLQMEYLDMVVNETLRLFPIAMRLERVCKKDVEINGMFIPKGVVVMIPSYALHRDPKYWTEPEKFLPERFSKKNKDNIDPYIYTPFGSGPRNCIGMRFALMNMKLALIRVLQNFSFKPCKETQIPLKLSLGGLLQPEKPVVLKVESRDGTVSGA
Among all 16,000 compounds or so, about 5,100 (32%) were called active. Inconclusive results (about 25%) are left out. Calls follow the shape of the dose curve; as a rule, active = well fitted curve in the direction sought with a large enough effect; inconclusive = small, poorly fitted or top-dose-only effect, or effect the other way; inactive = no such curve, though single readings can be large or run the other way. This is one part of the list.
# valid calls are 1 (active), -1 (inactive); nothing else

Record request — test call for `COc1ccc(/C(C#N)=C/c2c(-c3ccc(Cl)cc3)nc3c(C)cccn23)cc1`
1

Try `CN1CCc2c(c3c(n2C)CCN(C)[C@H]3c2ccccc2F)[C@@H]1c1ccccc1F` next.
1

Try `COc1ccc(-n2c(=O)c(-c3cc(F)cc(F)c3)nc3cncnc32)cc1` next.
1

Try `Cc1cc(NC(=O)COC(=O)c2ccc(S(=O)(=O)N3CCCc4ccccc43)cc2)no1` next.
1

Try `COc1ccc(-n2c(=O)c(-c3ccc(F)cc3)nc3cnc(N4CCOCC4)nc32)cc1` next.
-1

---

Kindly supply the reported activity, negative = inhibition values for the records listed here.
target: Cytochrome P450 3A4 (Homo sapiens) (UniProt P08684); assay: Cytochrome panel assay with activity outcomes; conditions: recombinant CYP, pro-luciferin dealkylation, luminescence, p450-cyp3a4; series mostly up to 57.1 µM; as to activity, negative = inhibition: % is scaled to controls: 0 for no effect and ±100 for the full control effect
In all, about 16,000 compounds went through this assay and about 5,100 (32%) were called active. Another 25% or so got no clear call; they are omitted. Some of the results follow.

Form field: reported activity, negative = inhibition of `CCOc1ccc2c(ccc(/C=C\c3cc(C)c4cccnc4c3O)[n+]2C)c1`
-23.9% [at 11.4 µM] (inactive)

Try `NC(N)=NNC(=O)C(=O)O` next.
-1.33% [at 11.4 µM] (inactive)

Try `O=C(Nc1ccccc1)OCc1cc(-c2ccc(Cl)cc2)on1` next.
3.33% [at 2.29 µM] (inactive)

Try `Clc1ccc(COc2ccccn2)cc1Cl` next.
-7.19% [at 2.29 µM] (inactive)

Try `Cc1cc(Cc2cc(C)cc(C(C)(C)C)c2O)c(O)c(Cc2cc(C)cc(C(C)(C)C)c2O)c1` next.
-19.8% [at 11.4 µM] (inactive)

Try `C/C(=N\NC(=O)c1cccc(C)c1)c1cccc(NC(=O)c2ccco2)c1` next.
-7.23% [at 2.29 µM] (inactive)

Try `CN1CCCN(C)C1c1cc([N+](=O)[O-])ccc1O` next.
-5.36% [at 11.4 µM] (inactive)

Try `Nc1ccc2[nH]cc(CCC(=O)O)c2c1` next.
-1.6% [at 11.4 µM] (inactive)

Try `O=C(Nc1nnc(-c2ccc(Cl)cc2)o1)Nc1ccccc1Cl` next.
-3.31% [at 2.29 µM] (inactive)

Try `Nc1nc2c(ncn2[C@@H]2C=C[C@@H](CO)C2)c(=O)[nH]1` next.
-2.95% [at 11.4 µM] (inactive)

Try `c1ccc2c(CC3NCCN3)cccc2c1` next.
-5.75% [at 11.4 µM] (inactive)

Try `COc1ccc(NC(=O)OC(C)C)cc1` next.
-9.73% [at 2.29 µM] (inactive)

Try `Clc1ccc(CN2CCCN(Cc3ccc(Cl)cc3)C2c2cc3ccccc3c3ccccc23)cc1` next.
-6.95% [at 11.4 µM] (inactive)

Try CC(=O)NC1=NC(=O)C(C)S1 (centres undefined) next.
-3.3% [at 2.29 µM] (inactive)

Try O=C1Oc2ccccc2C2(O)C3CCCCCC3C12 (centres undefined) next.
-27.4% [at 11.4 µM] (inactive)

Try `CCOc1cccc(NC(=O)CSc2nc(C)c3c(c2C#N)CCCC3)c1` next.
-6.34% [at 11.4 µM] (inactive)

Try `CCOC(=O)N/N=C\c1ccc([N+](=O)[O-])o1` next.
-11.7% [at 2.29 µM] (inactive)

Try `c1ccc2c(c1)c1ccccc1n2Cn1c2ccccc2c2ccccc21` next.
-21.4% [at 11.4 µM] (inactive)

Try `O=C(N/N=C1\CCCc2ccccc21)c1ccc([N+](=O)[O-])cc1Cl` next.
-11.3% [at 2.29 µM] (inactive)

Try `O=c1ncn(-c2ccccc2F)c2ncccc12` next.
14.6% [at 2.29 µM] (inactive)

Try `Oc1ccc(/C=N/NC(=S)NCc2ccco2)cc1` next.
-2.66% [at 2.29 µM] (inactive)

Try `Cc1cc(Cc2c(C)c(C)c(Cc3cc(C)cc(C(C)(C)C)c3O)c(C)c2C)c(O)c(C(C)(C)C)c1` next.
0.196% [at 11.4 µM] (inactive)

Try C=C1C=C(Br)C2(OCCCO2)[C@H]2OC12 (some centres undefined) next.
-14.7% [at 11.4 µM] (inactive)

Try Cc1ccc(SCN2CCCCC2)cc1 (tested in a mixture with another compound) next.
-20% [at 11.4 µM] (inactive)

---

Biological target: Cytochrome P450 3A4 (Homo sapiens) (UniProt P08684)
Assay: Cytochrome panel assay with activity outcomes
Conditions: recombinant CYP, pro-luciferin dealkylation, luminescence, p450-cyp3a4; series mostly up to 57.1 µM
Description: The P450 gene superfamily is involved in the metabolism and clearance of xenobiotics. This assay used various human CYP P450 isozymes to measure the dealkylation of various pro-luciferin substrates to luciferin. The luciferin is then measured by luminescence after the addition of a luciferase detection reagent. […] Inhibitors and some substrates limit the production of luciferin, and decrease measured luminescence. […] 8, Detection, 1 sec, ViewLux luminescent read […]
The campaign covered roughly 16,000 compounds. About 5,100 (32%) were called active. Roughly 25% stayed inconclusive and do not appear here. The call rests on the fitted dose curve; in most records, active means well fitted curve in the direction sought with a large enough effect; inconclusive means small, poorly fitted or top-dose-only effect, or effect the other way; inactive means no such curve, though single readings can be large or run the other way. This is one part of the list.
# valid calls are true (1) = active, false (0) = inactive; nothing else

Record request — test call for `CC(C)c1ccccc1-n1c(SCC(=O)N2CCN(c3ccccc3)CC2)nnc1-c1cccnc1`
true (1)

Try `O=C(c1ccc2nc3ccc(Cl)cc3c(=O)n2c1)N1CCOCC1` next.
false (0)

Try `C[C@@]12CC[C@@H]3c4ccc(O)cc4CC[C@H]3[C@H]1C[C@@H](O)[C@H]2O` next.
false (0)

Try Cc1ccc(NC(=O)c2cc(N3C(=O)C4CC=CCC4C3=O)ccc2N2CCOCC2)cc1Cl (stereo unspecified) next.
true (1)

Try `COc1ccccc1Cn1nnc2c(=O)[nH]c(C3CCN(C(=O)c4ccc(C)cc4)CC3)nc21` next.
true (1)

Try `O=C(c1cnccn1)N1CCC2(CCCN(c3cccc(-c4ccccc4)c3)C2)CC1` next.
true (1)

Try `CCCC(=O)Nc1ccc2nc(SCC(=O)Nc3ccc(N4CCOCC4)c(Cl)c3)sc2c1` next.
true (1)

Try `Cc1ccccc1C(=O)Nc1ccc(N2CCOCC2)nc1` next.
false (0)

Try `Cn1c(Cc2cccc3ccccc23)nnc1SCC(=O)N1CCN(c2ccccc2)CC1` next.
true (1)

Try `O=C(c1cnccn1)N1CCC[C@@]2(CCN(c3cccc(-c4ccccc4)c3)C2)C1` next.
true (1)

Try `CN(C)c1ccc(NC(=O)CSc2nc(N)c(C(=O)Nc3ccc(N(C)C)cc3)s2)cc1` next.
true (1)

Try O=C1NC(c2ccccc2)=NC1(NS(=O)(=O)c1ccccc1)C(F)(F)F (stereo unspecified) next.
false (0)

Try `CCNc1ncc2nc(-c3ccc(Cl)cc3)c(=O)n(C3CC3)c2n1` next.
false (0)

Try `CN(Cc1n[nH]c(=S)n1C)S(=O)(=O)c1ccccc1` next.
false (0)

Try `COc1ccc(C(=O)N2CCC3(CCN(Cc4ccccc4OC)CC3)CC2)cc1` next.
false (0)

Try `Cc1nc(SCC(=O)Nc2ccc(N3CCOCC3)cc2)nc(C)c1C` next.
true (1)

Try `Cn1c(CC(=O)Nc2ccc(Cl)c(Cl)c2)nnc1SCC(=O)N1CCN(c2ccccc2)CC1` next.
true (1)

Try `S=c1[nH]nc(CCc2ccccc2)n1Cc1ccccc1` next.
true (1)

Try `O=C(c1cnccn1)N1CCC2(CC1)CN(c1ccccc1)C2` next.
false (0)

Try `O=C(c1cnccn1)N1CCC2(CCCN(c3ccccc3)C2)CC1` next.
true (1)

Try `c1ccc(-c2nc(CSc3n[nH]c(-c4cccs4)n3)cs2)cc1` next.
true (1)

---

Target: Cytochrome P450 3A4 (Homo sapiens) (UniProt P08684)
Test: Cytochrome panel assay with activity outcomes
Settings: recombinant CYP, pro-luciferin dealkylation, luminescence, p450-cyp3a4; series mostly up to 57.1 µM
Description: The P450 gene superfamily is involved in the metabolism and clearance of xenobiotics. This assay used various human CYP P450 isozymes to measure the dealkylation of various pro-luciferin substrates to luciferin. The luciferin is then measured by luminescence after the addition of a luciferase detection reagent. […] Inhibitors and some substrates limit the production of luciferin, and decrease measured luminescence. […] 8, Detection, 1 sec, ViewLux luminescent read […]
Hit rate of the full screen: of about 16,000 compounds, about 5,100 (32%) were called active. Not shown: some 25% with an inconclusive outcome. The call rests on the fitted dose curve; in most records, active means well fitted curve in the direction sought with a large enough effect; inconclusive means small, poorly fitted or top-dose-only effect, or effect the other way; inactive means no such curve, though single readings can be large or run the other way. Some of the results follow.
# valid calls are class 1 (active), class 0 (inactive); nothing else

Record request — test call for `COC(=O)c1sccc1NC(=O)CN(C)NS(=O)(=O)c1ccc(F)cc1`
class 0

Try Cc1ncc([N+](=O)[O-])n1CCOC(=O)NC(NCc1ccccc1)C(Cl)(Cl)Cl (stereo unspecified) next.
class 1

Try `CC(=O)c1c(C)[nH]c(C(=O)COc2ccc(C#N)cc2)c1C` next.
class 1

Try `CCOC(=O)CC(=O)CSc1nc(-c2ccccc2)cc(-c2ccc(Cl)cc2)c1C#N` next.
class 1

Try N[C@H](C(=O)O)C1[C@H](C(=O)O)[C@H]1C(=O)O (stereo partly specified) next.
class 0

Try `Cc1ncc([N+](=O)[O-])n1CCO` next.
class 0

Try `CC(=O)N1CCC2(CCCN(c3ncccn3)C2)CC1` next.
class 0

Try `Cc1ncc([N+](=O)[O-])n1CC(=O)NCc1ccccc1` next.
class 0

Try `CCc1ccc(C2=Nn3c(nnc3-c3cccs3)SC2)cc1` next.
class 1

Try `COc1ccc(-c2nnc3n2N=C(C)CS3)cc1` next.
class 0

Try `COC(=O)c1sccc1NC(=O)CSc1cc(Cl)ccc1Cl` next.
class 1
